From: the supplement of paper PMC10567573

Please provide measured protein stability index for the entries that follow.
B1: PDS5B (parent)
chain: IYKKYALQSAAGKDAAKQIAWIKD

variants of: B1; assay: protein stability index of a GFP-peptide fusion (GPS, HEK-293T) (PSI 1-6); higher = more stable; conditions: c terminus: a fixed tail appended;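 also: lentivirally expressed fusions sorted by FACS into six bins by GFP to DsRed ratio, PSI derived from sequencing read proportions per bin multiplied by bin number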

The examples below pair each entry with its known result.
# seq-text, protein stability index
data = [
    ("IYKKYVLQSAAGKDAAKQIAWIKD [A6V]", 1.82),
    ("WYKKYALQSAAGKDAAKQIAWIKD [I1W]", 2.14),
]

Required: protein stability index, one value per variant below.
1. IYKKYALHSAAGKDAAKQIAWIKD [Q8H]
2. IYKKYALQSAAGKDAAKQIAWTKD [I22T]
3. IYKKYALQSVAGKDAAKQIAWIKD [A10V]
4. IYKKYALQSAAGKDAAKQIAWHKD [I22H]
5. IYKKYALQSPAGKDAAKQIAWIKD [A10P]
6. IYKKYALQSAAGKDAAKQIAKIKD [W21K]

Output line:
[1.83, 3.31, 2.1, 3.12, 2.26, 2.65]

Please look at the items below and tell me protein stability index for each one, in order.
1. IYKKYALQSAAGKDAAKQIAWCKD [I22C]
2. IYKKYALQSACGKDAAKQIAWIKD [A11C]
3. IYKCYALQSAAGKDAAKQIAWIKD [K4C]
4. IYKKYELQSAAGKDAAKQIAWIKD [A6E]
5. IYKKYALQSAAKKDAAKQIAWIKD [G12K]

Output line:
[2.75, 1.58, 1.61, 3.2, 1.75]

Give measured protein stability index for every item shown.
1. IYKKYACQSAAGKDAAKQIAWIKD [L7C]
2. IYCKYALQSAAGKDAAKQIAWIKD [K3C]

Output line:
1.93
1.51
